System: Sagittaria pygmaea, L.
Assay Comment: Preemergence weed control under flooded paddy conditions, SAGPY (Arrowhead (Pygmaea))
Type: in vivo
Assay Context: Rate 0.0625 kg/ha; preemergence, flooded paddy; rated three to four weeks after treatment
Could you please report measured SAGPY herbicidal effect rating for the items listed next?
Answers are plain numbers.

Worked examples, 4 compounds total:
{"Compound": "CC(OCc1nsc2ccc(-n3c(=O)cc(C(F)(F)F)n(C)c3=O)cc12)C(F)(F)F (centres unmarked)", "Result Number": 0.0}
{"Compound": "Cc1nsc2ccc(-n3c(=O)cc(C(F)(F)F)n(Cc4ccccc4)c3=O)cc12", "Result Number": 0.0}
{"Compound": "C#CCn1c(C(F)(F)F)cc(=O)n(-c2ccc3snc(C)c3c2)c1=O", "Result Number": 0.0}
{"Compound": "C=C(C(=O)OC)C(C)OCc1nsc2ccc(-n3c(=O)cc(C(F)(F)F)n(C)c3=O)cc12 (centres unmarked)", "Result Number": 0.0}

Now consider a different compound.
Would you mind telling me what SAGPY herbicidal effect rating value was observed for Cn1c(C(F)(F)F)cc(=O)n(-c2ccc3snc(COCCCCl)c3c2)c1=O ?
2.0

----------
Test system: Monochoria vaginalis, Presl.
Assay Comment: Preemergence weed control under flooded paddy conditions, MOOVA (Monochoria); further: meaning of each grade not given here
Format: in vivo
Assay Context: 0.0625 kg/ha; preemergence weeds, flooded paddy; rated three to four weeks after treatment
Result Type: herbicidal effect rating, MOOVA

# example entries with known answers
{"Molecule": "Cn1c(C(F)(F)F)cc(=O)n(-c2ccc3snc(C(Cl)Cl)c3c2)c1=O", "herbicidal effect rating, MOOVA": 9.0}
{"Molecule": "CCc1nsc2ccc(-n3c(=O)cc(C(F)(F)F)n(C)c3=O)cc12", "herbicidal effect rating, MOOVA": 9.0}

Batch request: herbicidal effect rating, MOOVA per item, same order as input.
1. Cn1c(C(F)(F)F)cc(=O)n(-c2ccc3snc(COCC(F)F)c3c2)c1=O
2. C=CC(C)OCc1nsc2ccc(-n3c(=O)cc(C(F)(F)F)n(C)c3=O)cc12 (stereo not shown)
3. COCC(C)OC(=O)COc1ccc(C)cc1-c1nsc2ccc(-n3c(=O)cc(C(F)(F)F)n(C)c3=O)cc12 (racemic)
4. Cn1c(C(F)(F)F)cc(=O)n(-c2ccc3snc(N4CCOCC4)c3c2)c1=O
5. Cn1c(C(F)(F)F)cc(=O)n(-c2ccc3snc(COC(=O)c4ccccc4)c3c2)c1=O

0.0
0.0
9.0
2.0
9.0

----------
System: Cyperus iria
Assay Comment: Preemergence weed control under flooded paddy conditions, CYPIR (Rice Flatsedge)
Type: in vivo
Assay Context: Rate 0.0320 kg/ha; preemergence, flooded paddy; rated three to four weeks after treatment
Result Type: CYPIR herbicidal effect rating
One number for each entry.

Use these answered entries as a reference point.
{"Molecule": "Cn1c(C(F)(F)F)cc(=O)n(-c2ccc3snc(CSCC(=O)O)c3c2)c1=O [Example 283]", "CYPIR herbicidal effect rating": 0.0}
{"Molecule": "CNC.Cn1c(C(F)(F)F)cc(=O)n(-c2ccc3snc(COCC(=O)O)c3c2)c1=O [Example 296]", "CYPIR herbicidal effect rating": 6.0}
{"Molecule": "Cn1c(C(F)(F)F)cc(=O)n(-c2ccc3snc(COCC(=O)O)c3c2)c1=O [Example 293]", "CYPIR herbicidal effect rating": 9.0}

Batch request: CYPIR herbicidal effect rating per item, same order as input.
1. Cc1ccc(OCC(=O)OC(C)(C)C)c(-c2noc3ccc(-n4c(=O)cc(C(F)(F)F)n(C)c4=O)c(Cl)c23)c1 [Example 265]
2. COC(=O)COc1ccc(C)cc1-c1noc2ccc(-n3c(=O)cc(C(F)(F)F)n(C)c3=O)c(Cl)c12 [Example 261]
3. Cc1ccc(OCC(=O)NS(=O)(=O)c2sc3ccc(Cl)cc3c2C)c(-c2nsc3ccc(-n4c(=O)cc(C(F)(F)F)n(C)c4=O)cc23)c1 [Example 290]
4. Cn1c(C(F)(F)F)cc(=O)n(-c2ccc3snc(-c4ccc(OCC(=O)OC(C)(C)C)cc4)c3c2)c1=O [Example 273]

1. 0.0
2. 4.0
3. 6.0
4. 6.0
